Please respond with reported EC50 for every item in the list.
Assayed system: human GPR120 (Homo sapiens, UniProt Q5NUL3)
Construct: host or cells: CHO-K1
Sequence (Q5NUL3 1-377 isoform Q5NUL3-1): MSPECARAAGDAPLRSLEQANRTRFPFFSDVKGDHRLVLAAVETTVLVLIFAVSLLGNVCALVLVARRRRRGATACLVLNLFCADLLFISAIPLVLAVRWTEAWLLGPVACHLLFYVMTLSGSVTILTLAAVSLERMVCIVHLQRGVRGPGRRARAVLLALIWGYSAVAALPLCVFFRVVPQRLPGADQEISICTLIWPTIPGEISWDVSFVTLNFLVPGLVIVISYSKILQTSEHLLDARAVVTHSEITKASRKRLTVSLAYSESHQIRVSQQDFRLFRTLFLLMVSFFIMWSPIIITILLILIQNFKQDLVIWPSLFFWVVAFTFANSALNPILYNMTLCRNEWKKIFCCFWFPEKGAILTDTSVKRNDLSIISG
Sequence (P32121 whole entry partner): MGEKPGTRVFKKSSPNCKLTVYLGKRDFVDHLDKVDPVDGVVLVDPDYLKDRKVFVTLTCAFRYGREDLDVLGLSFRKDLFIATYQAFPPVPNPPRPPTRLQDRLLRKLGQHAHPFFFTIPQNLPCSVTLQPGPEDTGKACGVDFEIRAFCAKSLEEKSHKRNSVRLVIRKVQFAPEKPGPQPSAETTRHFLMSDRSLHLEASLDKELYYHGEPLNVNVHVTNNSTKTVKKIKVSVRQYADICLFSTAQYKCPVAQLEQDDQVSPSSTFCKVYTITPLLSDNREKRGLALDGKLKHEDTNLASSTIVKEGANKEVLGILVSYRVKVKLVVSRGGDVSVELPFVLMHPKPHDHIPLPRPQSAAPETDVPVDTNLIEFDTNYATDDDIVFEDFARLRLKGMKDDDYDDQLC
Test summary: GPR120 β-Arrestin Recruitment Assay (PathHunter, CHO-K1 cells)
Assay type: cell-based
Conditions used: pEC50=−log(EC50) from curve fit; CHO-K1 cells, 90 min incubation; read-out: β-Arr pEC50 (converted)
Reply with just the number (in µM).

Please give measured EC50 of the following entry: COc1cc(Oc2ccc(Cl)cc2)nc(N2Cc3ccccc3S2(=O)=O)n1
1

Please give measured EC50 of the following entry: O=S1(=O)c2ccccc2CN1c1ccnc(OC2CCCCC2)n1
6.31

Please give measured EC50 of the following entry: COc1cc(N2Cc3ccccc3S2(=O)=O)nc(Oc2ccc(F)cc2)n1
0.501

Please give measured EC50 of the following entry: CNC(=O)c1cc(Oc2ccc(Cl)cc2)nc(N2Cc3ccccc3S2(=O)=O)c1
2.51

Please give measured EC50 of the following entry: Cc1cc(N2Cc3ccccc3S2(=O)=O)nc(OC2CC(F)(F)C2)n1
3.98
